Where these numbers come from: patent US12037395

TESTED_ON: T1, biotin-labeled human PD-1 Fc protein (human, biotin-labeled (sites not given))
T1 construct: also called PD-1-Fc-biotin
EXPERIMENT: capture ELISA: antibody captured by anti-IgG Fc, biotin PD-1-Fc 60 nM
Reported EC50 by item:
Write down the numeric answer in nM and omit the unit.

Please review the entries below; each comes with its answer.
BINDER	EC50, nM
mouse anti-PD-1 monoclonal antibody C1F5 (antibody, mouse IgG1, kappa, V domains shown, Purified from hybridoma; Constant regions tied only generically to 'mouse antibodies') VH: EVQLVESGGGLVKPGGSLKLSCAASGFAFSSYDMSWVRQTPEKRLEWVAYITGGGSSSFYPDTVKGRFTISRDNSKNTLYLQMTSLRSEDTAMYYCASPYLSYFDYWGQGTTLTVSS VL: DIVLTQSPATLSVTPGDSVSLSCRASQSISNNLHWYQQKSHESPRLLIKYGSQSMSGIPSRFSGSGSGTDFTLVINSVETEDFGMYFCQQSNSWPLTFGAGTKLELKR	0.16
mouse anti-PD-1 monoclonal antibody D1F2 (antibody, mouse IgG1, kappa, V domains shown, Purified from hybridoma; Constant regions tied only generically to 'mouse antibodies') VH: EVMLVESGGGLVKPGGSLKLSCAASGFTFSSYTMSWVRQTPEKRLEWVATISGGGSNIYYPDSVEGRFTVSRDNARNTLYLHMSSLRSEDTALYYCVLNYAYAMDYWGQGTSVTVSS VL: DIQMTQTTSSLSASLGDRVTISCRASQDISNFLNWYQQKPDGTVKLLIYYTSRLQSGVPSRFSGTGSGTDYSLTISNLEQEDLATYFCQQGSSLPWTFGGGTKLEIKR	0.19
mouse anti-PD-1 monoclonal antibody C1E2 (antibody, mouse IgG1, kappa, V domains shown, Purified from hybridoma; Constant regions tied only generically to 'mouse antibodies') VH: QVQLQQSGAELVRPGTSVKISCKASGYTFTNYWLGWVKQRPGHGLEWIGDIYPGGGYTNYNENFKGKATLTADTSSSTAYMQLSSLTSEDSAVFFCARGYGTNYWYFDVWGAGTTVTVSS VL: SIVMTQTPKFLLVSAGDRVTITCKASQSVSNDVAWYQQKPGQSPKLLIYYAFHRYTGVPDRFTGSGYGTDFTFTISTVQAEDLAVYFCQQDYSSPYTFGGGTKLEIKR	0.2

// sample mouse anti-PD-1 monoclonal antibody C1A1 (antibody, mouse IgG1, kappa, V domains shown, Purified from hybridoma; Constant regions tied only generically to 'mouse antibodies') VH: QVTLKESGPGILKPSQTLSLTCSFSGFSLSTSGMGVGWIRQPSGKGLEWLAHIWWDDDKFYNPSLKSQLTISKDTSRNQVFLKITSVDTADTATYYCARTGGFITTGYWYFDVWGAGTTVTVSS VL: DIQMTQTTSSLSASLGDRVTISCRASQDISNYLIWYQQKTDGTLKLLIYYTSRLHSGVPSRFSGSGSGTDYSLTISNLEQEDIATYFCQQHKTLPWTFGGGTKLEIKR , its EC50 was 0.18

Lab note: measured EC50 of mouse anti-PD-1 monoclonal antibody C1F4 (antibody, mouse IgG1, kappa, V domains shown, Purified from hybridoma; Constant regions tied only generically to 'mouse antibodies') VH: QVQLQQSGAELVRPGVSVKISCKGSGYKFTDYAMHWVRQSHAKSLEWIGIISTYSGDVSFNQNFKGKATMTVDKSSSTAYMELARLTSEDSAIYYCSRLGITAGFAYWGQGTLVTVSA VL: DIVMTQSQKFMSTSVGDRVTITCKASQNVRTAVAWYQQKPGQSPKALIYLASNRHTGVPDRFTGSGSGTDFTLTISNVQSKDLADYFCLQHWNYPYTFGGGTKLEIKR was 0.25

EC50 recorded for this binder, mouse anti-PD-1 monoclonal antibody C1C5 (antibody, mouse IgG1, kappa, V domains shown, Purified from hybridoma; Constant regions tied only generically to 'mouse antibodies') VH: QIQLVQSGPELKKPGETVKISCKASGYTFTNYGINWVKQAPGKGLKWMGWINTYSGEPTYSDDFKGRFAFSLETSASTAYLQINNLKNEDTSTYFCVRQGDFDYEDAMDYWGQGTSVTVSS VL: DVLMTQSPLSLPVSLGDQASISCRSSQSIVHSNGHIYLEWYLQKPGQSPKLLIYKVSKRFSGVPDRFSGSGSGTDFTLKISRVEAEDLGVYYCFQGSHGTFGGGTKLEIKR , is 0.16

Record mouse anti-PD-1 monoclonal antibody D1A1 (antibody, mouse IgG1, kappa, V domains shown, Purified from hybridoma; Constant regions tied only generically to 'mouse antibodies') VH: EVMLVESGGGLVKPGGSLKLSCAASGFTFSNYAMSWVRQTPEKRLEWVATISGGGGNIYYPDSVKGRFTISRDNARNTLYLQMSSLRSEDTALYYCASPYANYVWYLDVWGAGTTVTVSS VL: DIQMTQTTSSLSASLGDRVTISCRASQDISNYLNWYQQKPDGTVKLLIYYTSRLHSGVPSRFSGSGSGTDFSLTISNLEEEDIATYFCQQSNALPWTFGGGTKLEIKR , field EC50: 0.2

EC50 for mouse anti-PD-1 monoclonal antibody 2G2 (antibody, mouse IgG1, kappa, V domains shown, Purified from hybridoma; Constant regions tied only generically to 'mouse antibodies'; also called Clone 2G2) VH: EVQLVESGGDLVKPGGSLKLSCTASGFTFSYYGMSWVRQTPDKRLEWVATISSGSSFTYSPDSVKGRFTISRDNAKNTLYLQMNSLKSEDTAIYYCTRREGIYDASWDYSMDYWGQGTSVTVSS VL: DVLMTQTPLSLPVSLGDQASISCRSSQSIIRSNGNTYLEWYLQKPGQSPKLLIYKVSNRFSGVPDRFSGSGSGTDFTLKISRVEADDLGLYYCFQGSHVPWTFGGGTKLEIKR is 0.18

Nivolumab (OPDIVO®) (antibody, V domains shown) VH: QVQLVESGGGVVQPGRSLRLDCKASGITFSNSGMHWVRQAPGKGLEWVAVIWYDGSKRYYADSVKGRFTISRDNSKNTLFLQMNSLRAEDTAVYYCATNDDYWGQGTLVTVSS VL: EIVLTQSPATLSLSPGERATLSCRASQSVSSYLAWYQQKPGQAPRLLIYDASNRATGIPARFSGSGSGTDFTLTISSLEPEDFAVYYCQQSSNWPRTFGQGTKVEIK yielded EC50 of 0.21
